Readings of SPOT peptide array binding signal intensity for the listed binders
target: CaLsb1; experiment: SPOT peptide array binding signal intensity (averaged, normalized) (arbitrary units (background-subtracted, floor 0; scale differs between SH3 domains)); higher = stronger binding of the SH3 domain to the peptide
MEASURED_ENDPOINT: SPOT peptide array binding signal intensity

binder=YLTRPLPSTPNEDSR result="≤ 0"
binder=DTIDNVKSKIQDKEG result="≤ 0"
binder=VPVAPPPPPASLGQS result=0.75
binder=SKSRLLIELPEGFFT result="≤ 0"
binder=SKAKRPKFLLDLQIK result="≤ 0"
binder=TKHKAPPPPPPTAET result="≤ 0"
binder=GQYRRTIVIPRRFFT result=7

These measurements were taken from the supplement of paper PMC4466140.
